Ref: patent US20240209076A1

Readings of log10(kon) for the listed binders
TARGET OR TEST SYSTEM: human IL-6 (human, UniProt P05231 30-212)
Sequence (P05231 30-212 limits assumed): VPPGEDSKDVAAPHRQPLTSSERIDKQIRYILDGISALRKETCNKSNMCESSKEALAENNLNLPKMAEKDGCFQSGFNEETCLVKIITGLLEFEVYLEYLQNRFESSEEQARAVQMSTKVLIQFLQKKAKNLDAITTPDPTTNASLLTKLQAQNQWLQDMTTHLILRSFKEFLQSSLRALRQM
MEASUREMENT PROTOCOL: SPR Biacore, supernatant, Protein A capture, 37 C
Recall that a logarithmic scale is used here: each number is log10 of kon in M⁻¹ s⁻¹.

| BINDER | OUTCOME MEASURE | RECORDED NUMBER |
| --- | --- | --- |
| Anti-IL-6 antibody, heavy chain S35H, G66D, L100S / light chain WT (antibody, IgG1, V domains shown, IgG1; variable domains only) VH: EVQLVESGGGLVQPGGSLRLSCAASGFTFSPFAMHWVRQAPGKGLEWVAKISPGGSWTYYSDTVTDRFTFSLDTSKSTAYLQMNSLRAEDTAVYYCARQSWGYYALDIWGQGTLVTVSS VL: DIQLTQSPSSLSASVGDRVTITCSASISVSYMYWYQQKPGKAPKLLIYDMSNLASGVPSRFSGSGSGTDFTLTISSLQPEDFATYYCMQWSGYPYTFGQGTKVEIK | log10(kon) | 6.52 |

The value of log10(kon) measured for the binder Anti-IL-6 antibody, heavy chain S35H, G66D, L100Y / light chain WT (antibody, IgG1, V domains shown, IgG1; variable domains only) VH: EVQLVESGGGLVQPGGSLRLSCAASGFTFSPFAMHWVRQAPGKGLEWVAKISPGGSWTYYSDTVTDRFTFSLDTSKSTAYLQMNSLRAEDTAVYYCARQYWGYYALDIWGQGTLVTVSS VL: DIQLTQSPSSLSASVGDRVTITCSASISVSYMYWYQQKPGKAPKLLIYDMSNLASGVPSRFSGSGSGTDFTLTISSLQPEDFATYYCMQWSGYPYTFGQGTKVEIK turned out to be 6.00

The value of log10(kon) measured for the binder Anti-IL-6 antibody, heavy chain S35H, G66D, Q99S / light chain M32L, M50D, N52S, M88Q (antibody, IgG1, V domains shown, IgG1; variable domains only; VL is variant III) VH: EVQLVESGGGLVQPGGSLRLSCAASGFTFSPFAMHWVRQAPGKGLEWVAKISPGGSWTYYSDTVTDRFTFSLDTSKSTAYLQMNSLRAEDTAVYYCARSLWGYYALDIWGQGTLVTVSS VL: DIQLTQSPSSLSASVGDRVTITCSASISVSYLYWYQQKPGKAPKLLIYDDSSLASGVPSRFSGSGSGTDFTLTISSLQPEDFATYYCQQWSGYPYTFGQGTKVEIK turned out to be 5.30

The value of log10(kon) measured for the binder Anti-IL-6 antibody, heavy chain S35H, G66D, L100D / light chain WT (antibody, IgG1, V domains shown, IgG1; variable domains only) VH: EVQLVESGGGLVQPGGSLRLSCAASGFTFSPFAMHWVRQAPGKGLEWVAKISPGGSWTYYSDTVTDRFTFSLDTSKSTAYLQMNSLRAEDTAVYYCARQDWGYYALDIWGQGTLVTVSS VL: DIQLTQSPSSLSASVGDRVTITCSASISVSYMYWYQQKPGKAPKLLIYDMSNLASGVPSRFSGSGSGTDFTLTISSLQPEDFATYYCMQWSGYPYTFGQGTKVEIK turned out to be 6.25

The value of log10(kon) measured for the binder Anti-IL-6 antibody, heavy chain S35H, G66D, Q99H / light chain M32L, M50D, N52S, M88Q (antibody, IgG1, V domains shown, IgG1; variable domains only; VL is variant III) VH: EVQLVESGGGLVQPGGSLRLSCAASGFTFSPFAMHWVRQAPGKGLEWVAKISPGGSWTYYSDTVTDRFTFSLDTSKSTAYLQMNSLRAEDTAVYYCARHLWGYYALDIWGQGTLVTVSS VL: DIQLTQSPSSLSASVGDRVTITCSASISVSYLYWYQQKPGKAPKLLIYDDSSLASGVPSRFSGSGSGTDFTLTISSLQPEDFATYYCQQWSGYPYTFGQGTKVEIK turned out to be 5.90
